System: P388 leukemia ip, CD2F1 mice, survival T/C
experiment_summary: NCI In Vivo Anticancer Drug Screen. Data for tumor model P388 Leukemia (intraperitoneal) in CD2F1 (CDF1) mice
reported_conditions: endpoint: median survival time; dose: 12.5 mg/kg/injection; schedule: Q01DX005 (ip); vehicle: saline with Tween-80; higher = longer survival
Description: The antitumor activity of compounds was measured in mice bearing transplantable tumors. Survival or tumor size were measured and the results are expressed as the measurement made in the treated group (T) divided by the measurement made in the vehicle treated control group (C). The tumor model used in this assay is P388 Leukemia (intraperitoneal) in CD2F1 (CDF1) mice
Inconclusive results and toxic doses are left out.
Below, each entry is listed alongside its reported T/C.

molecule: CCCCC(S)CS (stereo not given)
meas_value: 107 % of control
//
molecule: CC(C)(C)OC(=O)NC(CC(Cc1ccccc1)C(=O)O)C(=O)NC(CC(Cc1ccccc1)C(=O)O)C(=O)NC(CC(Cc1ccccc1)C(=O)O)C(=O)NCC(=O)Oc1ccc([N+](=O)[O-])cc1 (stereo not given)
meas_value: 99 % of control
//
molecule: CCN(CC)CCNc1ccc(COC(C)=O)c2sc3ccccc3c(=O)c12
meas_value: 121 % of control
//
molecule: CC(C)OC(=O)C#N
meas_value: 98 % of control

Kindly consider the entry below.
Reported T/C, molecule `CCOC(=O)c1sc(=S)n(C(C)C)c1C` : ____
101 % of control

###

Below, each entry is listed alongside its reported T/C.
System: P388 leukemia ip, CD2F1 mice, survival T/C
experiment_summary: NCI In Vivo Anticancer Drug Screen. Data for tumor model P388 Leukemia (intraperitoneal) in CD2F1 (CDF1) mice
reported_conditions: endpoint: median survival time; dose: 25.0 mg/kg/injection; schedule: Q04DX003 (ip); vehicle: saline with Tween-80; higher = longer survival
Toxic doses and inconclusive results are not listed.

molecule: CCCCOP(=S)(N1CC1)N1CC1
T/C: 236 % of control
//
molecule: CN(C)c1ccc(N=Nc2ccc3cc4ccccc4cc3c2)cc1
T/C: 101 % of control
//
molecule: O=C(Cl)c1ccccc1Sc1ccccc1
T/C: 100 % of control
//
molecule: COC(=O)C(CCC1CCCCN1)(c1ccccc1)c1ccccc1 (configuration not stated)
T/C: 120 % of control
//
molecule: ClCCN(CCCl)c1ccc2c3c(cccc13)-c1ccccc1-2
T/C: 104 % of control
//
molecule: COc1ccc(N=NNc2ccc(OC)cc2)cc1
T/C: 116 % of control
//
molecule: CN(N=O)C(N)=O
T/C: 177 % of control
//
molecule: CCCCCCCCC1(O)OC(=O)C(C)=C1C (configuration not stated)
T/C: 100 % of control
//
molecule: COC1(OC)CCN2OC(CO)CC21 (configuration not stated)
T/C: 103 % of control
//
molecule: COc1ccc(N=C=S)cc1N=C=S
T/C: 104 % of control

Reported T/C, molecule `CCc1nn2c(=O)nc(SC)nc2s1` : ____
100 % of control

Reported T/C, molecule CC1(C)OC2C(COC(=O)Oc3ccccc3)OC(n3cnc4c(=S)nc[nH]c43)C2O1 (configuration not stated) : ____
105 % of control

###

Below, each entry is listed alongside its reported T/C.
Tested on: P388 leukemia ip, CD2F1 mice, survival T/C
experiment_summary: NCI In Vivo Anticancer Drug Screen. Data for tumor model P388 Leukemia (intraperitoneal) in CD2F1 (CDF1) mice
reported_conditions: endpoint: median survival time; dose: 50.0 mg/kg/injection; schedule: Q04DX003 (ip); vehicle: saline with Tween-80; higher = longer survival
Inconclusive results and toxic doses are left out.

Below are worked cases with known answers.
molecule: CN(N=O)C(N)=O
T/C: 113 % of control
//
molecule: CN(C)c1ccc(/C=C(/C#N)c2ccc(Cl)cc2)cc1
T/C: 97 % of control
//
molecule: CC(=O)OCCn1c2ccccc2nc2cc3c(cc21)c(Cl)c(=O)c1ccccc13
T/C: 96 % of control
//
molecule: O=C(O)C(Cc1ccc(OC(=O)C(F)(F)F)cc1)NC(=O)C(F)(F)F (stereo unspecified)
T/C: 100 % of control
//
molecule: CCC1=C2C(=O)c3ccccc3C2=C(C)S(=O)(=O)O1
T/C: 109 % of control

Kindly consider the entry below.
Test system P388 leukemia ip, CD2F1 mice, survival T/C; read-out T/C; what value for CN(c1ccccc1)C1C2=C(CCCC2)OC(=O)C12SCCCS2 (stereo unspecified) ?
96 % of control

###

Tested on: P388 leukemia ip, CD2F1 mice, survival T/C
experiment_summary: NCI In Vivo Anticancer Drug Screen. Data for tumor model P388 Leukemia (intraperitoneal) in CD2F1 (CDF1) mice
reported_conditions: endpoint: median survival time; dose: 200.0 mg/kg/injection; schedule: Q01DX001 (ip); vehicle: Klucel (hydroxypropylcellulose) (HPC); higher = longer survival
Toxic doses and inconclusive results are not listed.
Below, each entry is listed alongside its reported T/C.

Below are worked cases with known answers.
molecule: NC(=S)c1ccc(N=Cc2c(O)ccc3ccccc23)cc1
meas_value: 97 % of control

molecule: BrC1C(c2ccccc2)=NOC12CN=C(c1ccccc1)O2 (stereo not drawn)
meas_value: 99 % of control

molecule: Cc1cc(Cl)nn2cc(CC(=O)O)nc12
meas_value: 104 % of control

molecule: CCC(=O)c1cccc2c(C=O)c(Cl)n(C(=O)CC)c12
meas_value: 101 % of control

molecule: CC(=O)NC(CNC(C)C)C(=O)O (stereo not drawn)
meas_value: 98 % of control

molecule: Cc1[nH]cnc1CSCCN=C(N)n1[nH]cc(-c2ccc(Cl)cc2)c1=O
meas_value: 97 % of control

Test system P388 leukemia ip, CD2F1 mice, survival T/C; read-out T/C; what value for `BrCC1(CBr)COC1` ?
100 % of control

Test system P388 leukemia ip, CD2F1 mice, survival T/C; read-out T/C; what value for `CCOC(=O)NC(=O)CNc1ncc([N+](=O)[O-])s1` ?
108 % of control

Test system P388 leukemia ip, CD2F1 mice, survival T/C; read-out T/C; what value for `O=C1CCSC(=S)N1N1CCN(N2C(=O)CCSC2=S)CC1` ?
93 % of control

Test system P388 leukemia ip, CD2F1 mice, survival T/C; read-out T/C; what value for `CC(=O)Nc1ccc(S(=O)(=O)Nc2ccc3oc(=O)[nH]c3c2)cc1` ?
93 % of control

Test system P388 leukemia ip, CD2F1 mice, survival T/C; read-out T/C; what value for `CC(C)(C)C(=O)NNc1cccc(Cl)n1` ?
100 % of control

Test system P388 leukemia ip, CD2F1 mice, survival T/C; read-out T/C; what value for Cc1ccc(/C(=N/NS(=O)(=O)c2ccc(C)cc2)C(C)c2ccccc2)cc1 (stereo not drawn) ?
100 % of control

Test system P388 leukemia ip, CD2F1 mice, survival T/C; read-out T/C; what value for `CC1(C)COSOC1` ?
104 % of control

###

Tested on: P388 leukemia ip, CD2F1 mice, survival T/C
experiment_summary: NCI In Vivo Anticancer Drug Screen. Data for tumor model P388 Leukemia (intraperitoneal) in CD2F1 (CDF1) mice
reported_conditions: endpoint: median survival time; dose: 200.0 mg/kg/injection; schedule: Q04DX003 (ip); vehicle: saline; higher = longer survival
Inconclusive results and toxic doses are left out.
Below, each entry is listed alongside its reported T/C.

Below are worked cases with known answers.
compound: CC(=O)C1=CN(Cc2ccccc2)C=C(C(C)C)C1
measurement_target: P388 leukemia ip, CD2F1 mice, survival T/C
meas_value: 104 % of control
//
compound: CN(C)C(C#C[Si](C)(C)C)CO (centres undefined)
measurement_target: P388 leukemia ip, CD2F1 mice, survival T/C
meas_value: 100 % of control
//
compound: O=C(O)CSCSCC(=O)O
measurement_target: P388 leukemia ip, CD2F1 mice, survival T/C
meas_value: 104 % of control
//
compound: O=c1sc2ncccc2n1-c1ccc([N+](=O)[O-])cn1
measurement_target: P388 leukemia ip, CD2F1 mice, survival T/C
meas_value: 86 % of control
//
compound: CS(=O)(=O)OCCCCCCCCCCCC1C=CCC1 (centres undefined)
measurement_target: P388 leukemia ip, CD2F1 mice, survival T/C
meas_value: 93 % of control

Reported T/C, compound CC(=O)OC1C=CC(O)N(C(C)=O)C1SC1C2CC3CC(C2)CC1C3 (centres undefined) : ____
101 % of control

Reported T/C, compound `CCN(CC)SC(=S)SN(CC)CC` : ____
98 % of control

Reported T/C, compound CC1(C(N)=O)CO1 (centres undefined) : ____
100 % of control

Reported T/C, compound Cc1ccc2c(c1)C(=O)C(CN1CCCCC1)CO2 (centres undefined) : ____
108 % of control

Reported T/C, compound `Cc1ccc(S(=O)(=O)/N=C2\C=CC=C\C2=C2\Sc3ccccc3N2C)cc1` : ____
99 % of control

This collection of values is drawn from PubChem BioAssay AID330.
